test_description: Solubility in FaSSIF
cond: 23 °C, pH 6.5, fassif, thermodynamic from solid
Recorded solubility at 2 h for the following molecules
Mention the unit after the number when you answer.

INSERT INTO measurements (molecule, observed) VALUES
  ('COC(=O)N[C@H](C(=O)N[C@@H](Cc1ccc(C#Cc2cnc(N3CC4CCC(C3)N4C3COC3)nc2)cc1)[C@H](CN(Cc1c(F)cc(-c2ccn(C(F)F)n2)cc1F)NC(=O)[C@@H](NC(=O)OC)C(C)(C)C(F)(F)F)OC(=O)OCOC(=O)CC(C)(C)c1c(CC(=O)N[C@@H](CC(=O)O)C(=O)O)cc(C)cc1OP(=O)(O)O)C(C)(C)C(F)(F)F [Example 68]', '4440 µg/mL'),
  ('COC(=O)N[C@H](C(=O)N[C@@H](Cc1ccc(C#Cc2cnc(N3CC4CCC(C3)N4C3COC3)nc2)cc1)[C@H](CN(Cc1c(F)cc(-c2ccn(C(F)F)n2)cc1F)NC(=O)[C@@H](NC(=O)OC)C(C)(C)C(F)(F)F)OC(=O)OCOC(=O)CC(C)(C)c1c(CC(=O)NCCS(=O)(=O)O)cc(C)cc1OP(=O)(O)O)C(C)(C)C(F)(F)F [Example 21]', '4340 µg/mL');

Which solubility at 2 h value belongs to COC(=O)N[C@H](C(=O)N[C@@H](Cc1ccc(C#Cc2cnc(N3CC4CCC(C3)N4C3COC3)nc2)cc1)[C@H](CN(Cc1c(F)cc(-c2ccn(C(F)F)n2)cc1F)NC(=O)[C@@H](NC(=O)OC)C(C)(C)C(F)(F)F)OC(=O)CC(C)(C)c1c(CC(=O)N[C@@H](CS(=O)(=O)O)C(=O)O)cc(C)cc1OP(=O)(O)O)C(C)(C)C(F)(F)F [Example 32] ?
3400 µg/mL

Record: COC(=O)N[C@H](C(=O)N[C@@H](Cc1ccc(C#Cc2cnc(N3CC4CCC(C3)N4C3COC3)nc2)cc1)[C@H](CN(Cc1c(F)cc(-c2ccn(C(F)F)n2)cc1F)NC(=O)[C@@H](NC(=O)OC)C(C)(C)C(F)(F)F)OC(=O)CC(C)(C)c1c(CC(=O)N2CC(C)(C)C[C@H]2C(=O)O)cc(C)cc1OP(=O)(O)O)C(C)(C)C(F)(F)F [Example 61]
2580 µg/mL

====

assayed_target: bovine intestinal alkaline phosphatase (Bos taurus (Bovine))
Sequence (P19111 20-506): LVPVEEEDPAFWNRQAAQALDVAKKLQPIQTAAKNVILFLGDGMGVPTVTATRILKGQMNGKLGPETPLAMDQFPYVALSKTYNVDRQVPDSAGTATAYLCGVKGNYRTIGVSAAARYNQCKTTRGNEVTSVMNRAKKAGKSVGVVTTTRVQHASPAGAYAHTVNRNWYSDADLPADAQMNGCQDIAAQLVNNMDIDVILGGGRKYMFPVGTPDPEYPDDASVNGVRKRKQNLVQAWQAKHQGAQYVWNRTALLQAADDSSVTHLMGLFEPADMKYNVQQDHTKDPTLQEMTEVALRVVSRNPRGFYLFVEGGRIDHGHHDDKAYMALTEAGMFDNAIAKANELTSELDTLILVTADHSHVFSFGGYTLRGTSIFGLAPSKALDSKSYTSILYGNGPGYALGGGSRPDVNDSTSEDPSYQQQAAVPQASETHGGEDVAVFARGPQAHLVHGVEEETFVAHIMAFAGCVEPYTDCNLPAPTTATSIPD
test_description: BiALP: conversion by bovine intestinal alkaline phosphatase
Assay type: in vitro ADME
cond: 2 μM substrate, 100 ng/mL iALP, Tris pH 7.8, 37° C., 60 minutes
measurement_label: biALP Intermediate A or [Amprenavir] (% of total)

See these solved cases before continuing.
INSERT INTO assay_data (substance_smiles, observed) VALUES
  ('COC(=O)N[C@H](C(=O)N[C@@H](Cc1ccc(C#Cc2cnc(N3CC4CCC(C3)N4C3COC3)nc2)cc1)[C@H](CN(Cc1c(F)cc(-c2ccn(C(F)F)n2)cc1F)NC(=O)[C@@H](NC(=O)OC)C(C)(C)C(F)(F)F)OC(=O)OCOC(=O)CC(C)(C)c1c(CC(=O)NCC(=O)NS(C)(=O)=O)cc(C)cc1OP(=O)(O)O)C(C)(C)C(F)(F)F', '54.6 % of total'),
  ('COC(=O)N[C@H](C(=O)N[C@@H](Cc1ccc(C#Cc2cnc(N3CC4CCC(C3)N4C3COC3)nc2)cc1)[C@H](CN(Cc1c(F)cc(-c2ccn(C(F)F)n2)cc1F)NC(=O)[C@@H](NC(=O)OC)C(C)(C)C(F)(F)F)OC(=O)OCOC(=O)CC(C)(C)c1c(CC(=O)N2CCN(S(=O)(=O)N(C)C)CC2)cc(C)cc1OP(=O)(O)O)C(C)(C)C(F)(F)F', '5.6 % of total'),
  ('COC(=O)N[C@H](C(=O)N[C@@H](Cc1ccc(C#Cc2cnc(N3CC4CCC(C3)N4C3COC3)nc2)cc1)[C@H](CN(Cc1c(F)cc(-c2ccn(C(F)F)n2)cc1F)NC(=O)[C@@H](NC(=O)OC)C(C)(C)C(F)(F)F)OC(=O)CC(C)(C)c1c(CC(=O)NCc2ccc(S(N)(=O)=O)cc2)cc(C)cc1OP(=O)(O)O)C(C)(C)C(F)(F)F', '0 % of total');

Now take the following compound into account.
Given the entry `COC(=O)N[C@H](C(=O)N[C@@H](Cc1ccc(C#Cc2cnc(N3CC4CCC(C3)N4C3COC3)nc2)cc1)[C@H](CN(Cc1c(F)cc(-c2ccn(C(F)F)n2)cc1F)NC(=O)[C@@H](NC(=O)OC)C(C)(C)C(F)(F)F)OC(=O)CC(C)(C)c1c(CC(=O)NCc2ccc(C(F)F)cc2)cc(C)cc1OP(=O)(O)O)C(C)(C)C(F)(F)F` , what biALP Intermediate A or [Amprenavir] (% of total) was observed with bovine intestinal alkaline phosphatase (Bos taurus (Bovine))?
0 % of total
